So I've got a bunch of compounds here, and I need their IC50 values.
Biological target: HIV-1 RT resistant mutant K103N/Y181C (Human immunodeficiency virus type 1 group M subtype B, UniProt P04585, K690N/Y768C)
Construct: The reverse transcriptase (RT) enzyme assay has been adapted to a 96-well microtiter plate format
Assay: Reverse transcriptase (RT) enzymatic assay (IC50), PicoGreen fluorescence, resistant mutant

Q: IC50 lookup needed for Cc1cc(C(F)(F)F)cc(-n2nnnc2SCC(=O)Nc2ccc(S(N)(=O)=O)cc2Cl)c1Cl [Entry 703] , thanks.
Result: 0.05 to 0.1 µM

Q: IC50 lookup needed for CC(C)(C)c1ccc(-n2nnnc2SCC(=O)Nc2ccc(S(N)(=O)=O)cc2Cl)c(Cl)c1 [Entry 604] , thanks.
Result: < 0.05 µM

Q: IC50 lookup needed for CC(C)(C)c1ccc(-n2nnnc2SCC(=O)Nc2ccncc2Cl)c(Cl)c1 [Entry 801] , thanks.
Result: < 0.05 µM

Q: IC50 lookup needed for Cc1ccc(F)cc1-n1nnnc1SCC(=O)Nc1ccccc1[N+](=O)[O-] [Entry 135] , thanks.
Result: > 0.1 µM

Q: IC50 lookup needed for OC(CCSc1nnnn1-c1cccc2ccccc12)c1ccccc1Cl (centres unmarked) [Entry 317] , thanks.
Result: > 0.1 µM

Q: IC50 lookup needed for Cc1cc(Br)cc(C)c1-n1nnnc1SCC(=O)Nc1ccccc1[N+](=O)[O-] [Entry 140] , thanks.
Result: > 0.1 µM

Q: IC50 lookup needed for Cc1ccc(-n2nnnc2SCC(=O)Nc2ccc(C(=O)O)cc2Br)c(Cl)c1 [Entry 505] , thanks.
Result: > 0.1 µM

Q: IC50 lookup needed for CC(C)(C)c1ccc(-n2nnnc2SCC(=O)Nc2ccc(S(=O)(=O)c3ccccc3)cc2Cl)c(Cl)c1 [Entry 606] , thanks.
Result: 0.05 to 0.1 µM

Q: IC50 lookup needed for CC(C)=CCc1ccc(-n2nnnc2SCC(=O)Nc2ccccc2Cl)c(Cl)c1 [Entry 709] , thanks.
Result: > 0.1 µM

Q: IC50 lookup needed for CC(C)Oc1cc(-n2nnnc2SCC(=O)Nc2ccccc2[N+](=O)[O-])c(Cl)cc1Cl [Entry 134] , thanks.
Result: > 0.1 µM

Q: IC50 lookup needed for CC(C)CS(=O)(=O)c1ccc(NC(=O)CSc2nnnn2-c2ccc(C(C)(C)C)cc2Cl)c(Cl)c1 [Entry 608] , thanks.
Result: > 0.1 µM

Q: IC50 lookup needed for CC(C)(C)c1ccc(-n2nnnc2SCC(=O)Nc2ccc(N)cc2Cl)c(Cl)c1 [Entry 617] , thanks.
Result: > 0.1 µM

Q: IC50 lookup needed for O=C(CSc1nnnn1-c1ccccc1F)Nc1ccccc1[N+](=O)[O-] [Entry 113] , thanks.
Result: > 0.1 µM

Q: IC50 lookup needed for CCc1ccc(-n2nnnc2SCC(=O)Nc2ccccc2Cl)c(Cl)c1 [Entry 707] , thanks.
Result: > 0.1 µM

====

Target: HIV-1 RT enzyme (wild type) (Human immunodeficiency virus type 1 group M subtype B)
Construct: The reverse transcriptase (RT) enzyme assay has been adapted to a 96-well microtiter plate format
Test: Reverse transcriptase (RT) enzymatic assay (IC50), PicoGreen fluorescence, wild type
Assay type: biochemical
Conditions: RT enzymatic assay, wild type; read-out: IC50 WT
measurementKind: IC50

Q: IC50 lookup needed for `COc1cc(NC(=O)CSc2nnnn2-c2cccc3ccccc23)cc(OC)c1` , thanks.
Result: > 100 nM

Q: IC50 lookup needed for `CN1CCN(c2ccc(NC(=O)CSc3nnnn3-c3ccc(C(C)(C)C)cc3Cl)c(Cl)c2)CC1` , thanks.
Result: < 50 nM

Q: IC50 lookup needed for `O=C(CCCc1nnnn1-c1cccc2ccccc12)Nc1ccccc1Cl` , thanks.
Result: > 100 nM

Q: IC50 lookup needed for `CN(CCSc1nnnn1-c1cccc2ccccc12)c1ccccc1[N+](=O)[O-]` , thanks.
Result: > 100 nM

Sourced from patent US7642277B2
